target_or_system: HLA-A02.01 (human)
test_description: pMHC-I complex dissociation at 37 C, radiolabeled b2m
recorded_conditions: remark: other sources report otherwise
property_measured: Stability (half-life (hr.)) (min)

Observe how each entry below is paired with its result.
binder | Stability (half-life (hr.)), min
QLIMQLMPFG | 0
STVQLIMQL | 0
IMQLMPFGC | 22.2
MQLMPFGCLL | 22.9

I: CLTSTVQLIM
II: MQLMPFGCL
Pick one: I or II . Which one has the lower reported Stability (half-life (hr.))? To answer, give the label that identifies your chosen option.
I
